Taken from paper PMC4336329.

Biological target: human ether-à-go-go-related gene (hERG) potassium channel (human, UniProt Q12809);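 further: peak tail current of the secondary pulse compared with the same well before compound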
Sequence (Q12809 whole entry, looked up): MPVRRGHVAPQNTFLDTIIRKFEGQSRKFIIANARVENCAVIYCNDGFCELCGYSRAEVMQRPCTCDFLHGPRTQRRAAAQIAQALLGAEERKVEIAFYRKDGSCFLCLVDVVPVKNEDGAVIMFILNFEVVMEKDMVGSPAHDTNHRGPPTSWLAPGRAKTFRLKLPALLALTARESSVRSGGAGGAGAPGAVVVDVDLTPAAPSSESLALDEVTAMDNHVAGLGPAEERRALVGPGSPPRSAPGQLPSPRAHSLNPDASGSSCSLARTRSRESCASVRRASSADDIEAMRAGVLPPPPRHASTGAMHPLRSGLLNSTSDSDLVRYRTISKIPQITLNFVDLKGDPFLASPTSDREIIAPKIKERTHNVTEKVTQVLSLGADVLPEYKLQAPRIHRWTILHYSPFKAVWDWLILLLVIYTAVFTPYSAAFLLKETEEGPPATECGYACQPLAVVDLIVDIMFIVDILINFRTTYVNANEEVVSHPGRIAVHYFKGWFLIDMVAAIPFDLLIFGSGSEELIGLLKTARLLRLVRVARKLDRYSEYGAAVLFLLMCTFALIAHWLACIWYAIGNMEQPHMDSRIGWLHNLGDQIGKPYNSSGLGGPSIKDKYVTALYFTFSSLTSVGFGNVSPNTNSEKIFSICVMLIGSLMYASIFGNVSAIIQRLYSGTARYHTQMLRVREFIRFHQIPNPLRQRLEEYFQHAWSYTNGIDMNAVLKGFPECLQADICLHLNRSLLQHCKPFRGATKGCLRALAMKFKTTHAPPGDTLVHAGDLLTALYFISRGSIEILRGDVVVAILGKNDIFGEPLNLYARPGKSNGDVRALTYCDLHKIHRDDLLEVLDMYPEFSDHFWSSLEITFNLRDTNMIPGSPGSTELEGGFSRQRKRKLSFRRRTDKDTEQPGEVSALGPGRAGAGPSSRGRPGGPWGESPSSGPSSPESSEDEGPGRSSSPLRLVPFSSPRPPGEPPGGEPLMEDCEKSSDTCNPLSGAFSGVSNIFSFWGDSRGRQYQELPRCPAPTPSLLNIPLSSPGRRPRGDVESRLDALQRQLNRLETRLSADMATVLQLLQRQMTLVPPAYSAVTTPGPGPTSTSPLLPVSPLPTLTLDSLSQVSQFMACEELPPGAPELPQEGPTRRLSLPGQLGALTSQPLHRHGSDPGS
Assay: primary screen, population patch clamp on CHO cells stably expressing hERG; higher = less effect of the substance
Screen size: about 310,000 compounds; about 14,000 (4.5%) showed an effect of 50% or more. Effects have a minus sign here. The sample holds strong results, similar compounds and a random draw of the others, so the mix is not that of the screen.
Listing: hERG current change (%, negative = inhibition) at 10uM of selected molecules
The answer consists of two parts: a number and, after it, its unit.

>>> df
                                   molecule  assay_value
0  CC(Sc1nncn1-c1ccccc1)C(=O)Nc1cccc([N+](=O)[O-])c1 (stereo not drawn)       -17.2%
1  COc1ccc(-n2cnnc2SC(C)C(=O)Nc2cccc([N+](=O)[O-])c2)cc1 (stereo not drawn)       -59.3%

Now for another entry.
Fill in the blank: the reported hERG current change (%, negative = inhibition) at 10uM of COC(=O)C1Sc2[nH]c(=O)sc2C2c3ccccc3OC(=O)C12 (stereo not drawn) is ____. -22.6%

---

Biological target: human ether-à-go-go-related gene (hERG) potassium channel (human, UniProt Q12809);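 further: peak tail current of the secondary pulse compared with the same well before compound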
Test: primary screen, population patch clamp on CHO cells stably expressing hERG; higher = less effect of the substance
Protocol: Briefly, Chinese hamster ovary (CHO) cells stably expressing the hERG channel were dislodged from tissue culture flasks and dispensed into PPC plates. […] During the recording, background leak currents were estimated by a 100 ms step to -80 mV from an initial holding potential of -70 mV and subtracted from the subsequent current measurement. The campaign was conducted in two phases using slight differences in recording protocol. […]
The whole screen tested about 310,000 compounds, of which about 14,000 (4.5%) showed an effect of 50% or more. Effects have a minus sign here. Shown is part of a subset that was picked to be rich in strong results.
PARAMETER_MEASURED: hERG current change (%, negative = inhibition) at 10uM (%)
Field format: number, assumed %, no unit text.

                                   compound  assay_value
0                     O=C1COc2ccc3ccccc3c21        -4.35
1  N=c1c(C(=O)NCCN2CCOCC2)cc2c(=O)n3ccccc3nc2n1CCc1ccccc1        -72.5
2  COc1ccc(NC(=O)CCN2C(=O)c3cccc([N+](=O)[O-])c3C2=O)cc1        -5.08
3  COc1ccc(C(C(N)=O)c2ncc(C(F)(F)F)cc2Cl)cc1 (stereo not shown)         4.78
4  Cc1ccnc(-n2c(C)cc(/C=C3\C(=O)NC(=S)N(C)C3=O)c2C)c1         12.9

Fill in the blank: the reported hERG current change (%, negative = inhibition) at 10uM of NC(=O)c1ccc(NCc2ccco2)c([N+](=O)[O-])c1 is ____. 6.16

Also O=C(C[n+]1ccccc1)N1CCCc2ccccc21.[Cl-] ? 18.3

---

Listing: hERG current change (%, negative = inhibition) at 10uM of selected compounds
Molecular target: human ether-à-go-go-related gene (hERG) potassium channel (human);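 further: peak tail current of the secondary pulse compared with the same well before compound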
Assay: primary screen, population patch clamp on CHO cells stably expressing hERG; higher = less effect of the substance
Method: Briefly, Chinese hamster ovary (CHO) cells stably expressing the hERG channel were dislodged from tissue culture flasks and dispensed into PPC plates. […] During the recording, background leak currents were estimated by a 100 ms step to -80 mV from an initial holding potential of -70 mV and subtracted from the subsequent current measurement. The campaign was conducted in two phases using slight differences in recording protocol. […]
Hit rate of the full screen: of about 310,000 compounds, about 14,000 (4.5%) showed an effect of 50% or more. Effects have a minus sign here. This is one part of a sample in which strong results are shown more often than they occur.
Field format: number, assumed %, no unit text.

In [3]: df
Out[3]:
                                   compound                             tested_system  assay_value
0  CCC1CCCCN1S(=O)(=O)c1ccc(C(=O)N(CCCN(C)C)c2nc3cc4c(cc3s2)OCO4)cc1.Cl (stereo not shown)  human ether-à-go-go-related gene (hERG) potassium channel (human)          -56
1  COc1cc(NC(=O)c2ccc(-c3ccc(Br)cc3)o2)ccc1NC(=O)C(C)C  human ether-à-go-go-related gene (hERG) potassium channel (human)        -26.1
2  Cl.O=C(NCC(c1cccs1)N1CCOCC1)c1cc2ccccc2o1 (stereo not shown)  human ether-à-go-go-related gene (hERG) potassium channel (human)        -15.7

Fill in the blank: the reported hERG current change (%, negative = inhibition) at 10uM of CCCCN1C(=O)/C(=C/c2ccc(N(C)C)cc2)C(=O)N(Cc2ccco2)C1=O is ____. 7.86
